test: Plasma pharmacokinetics after oral gavage co-administration of DMT and DMT-d10 to male rats (Group 2)
test-context: male, Sprague Dawley, rat, plasma, po, 10 mg/kg, AUC0-1, plasma, male rats, oral gavage (OG) 10 mg/kg, co-administered
parameter: AUC(0-t) (ng·h/mL)
State the answer as a number, implicitly in ng·h/mL.

Problem: # AUC(0-t) lookup, item CN(C)CCc1c[nH]c2ccccc12 [DMT, N,N-dimethyltryptamine, reference compound]
Solution: 15.2

---

test: Brain pharmacokinetics and brain to plasma ratio after intravenous (bolus) co-administration of DMT and DMT-d10 to male rats (Group 4)
test-context: male, Sprague Dawley, rat, brain, iv, 1 mg/kg
parameter: Kp
Please give only the number in your answer, with no unit.

- compound: "CN(C)CCc1c[nH]c2ccccc12 [DMT, N,N-dimethyltryptamine, reference compound]"
  reported-value: 9.5

Next:
Problem: # Kp lookup, item [2H]C([2H])([2H])N(C([2H])([2H])[2H])C([2H])([2H])C([2H])([2H])c1c[nH]c2ccccc12
Solution: 12.3

---

test: Plasma pharmacokinetics after intravenous (bolus) co-administration of DMT and DMT-d10 to male rats (Group 4)
test-context: male, Sprague Dawley, rat, plasma, iv, 1 mg/kg
parameter: half-life (min)
State the answer as a number, implicitly in min.

Problem: # half-life lookup, item CN(C)CCc1c[nH]c2ccccc12 [DMT, N,N-dimethyltryptamine, reference compound]
Solution: 10.3
